target: ATP-dependent translocase ABCB1 (P-glycoprotein) (Homo sapiens); assay: TP_TRANSPORTER: increase in Calcein-AM intracellular accumulation (Calcein-AM: 0.25 uM) in MDR-CEM cells; assay type: functional, cell-based; settings: human, MDR-CEM cells, probe Calcein-AM
Non-standard residues stand in square brackets, D forms with d. Residues, ends and D or L forms follow the SMILES beside them. *: point of attachment. NMeI = CC[C@H](C)[C@H](NC)C(=O)O; NMeD = CN[C@@H](CC(=O)O)C(=O)O; NMeV = CN[C@H](C(=O)O)C(C)C; Pip = O=C(O)[C@@H]1CCCCN1; dLac = C[C@@H](O)C(=O)O; OtBu = CC(C)(C)O*
Test Readout: EC50 (µM)
Answer format: numeric, µM implied, no suffix.

### Prompt # query: EC50 of entry CC[C@H](C)[C@H]1C(=O)NCC(=O)N(C)[C@@H](C(C)C)C(=O)N[C@@H](Cc2ccc(OC)cc2)C(=O)O[C@H](C)C(=O)N2CCCC[C@H]2C(=O)N(C)[C@@H](C(C)C)C(=O)N[C@@H](C(C)C)C(=O)N(C)[C@@H](CC(=O)OC(C)(C)C)C(=O)N(C)[C@@H]([C@@H](C)CC)C(=O)N1C (cyclo(G[NMeV]Y(Me)[dLac][Pip][NMeV]V[NMeD](OtBu)[NMeI][NMeI]))
### Response 0.22

---

target: ATP-dependent translocase ABCB1 (Homo sapiens, UniProt P08183); assay: TP_TRANSPORTER: increase in Calcein-AM intracellular accumulation (Calcein-AM: 0.25 uM) in MDR-CEM cells
Sequence (P08183 whole entry): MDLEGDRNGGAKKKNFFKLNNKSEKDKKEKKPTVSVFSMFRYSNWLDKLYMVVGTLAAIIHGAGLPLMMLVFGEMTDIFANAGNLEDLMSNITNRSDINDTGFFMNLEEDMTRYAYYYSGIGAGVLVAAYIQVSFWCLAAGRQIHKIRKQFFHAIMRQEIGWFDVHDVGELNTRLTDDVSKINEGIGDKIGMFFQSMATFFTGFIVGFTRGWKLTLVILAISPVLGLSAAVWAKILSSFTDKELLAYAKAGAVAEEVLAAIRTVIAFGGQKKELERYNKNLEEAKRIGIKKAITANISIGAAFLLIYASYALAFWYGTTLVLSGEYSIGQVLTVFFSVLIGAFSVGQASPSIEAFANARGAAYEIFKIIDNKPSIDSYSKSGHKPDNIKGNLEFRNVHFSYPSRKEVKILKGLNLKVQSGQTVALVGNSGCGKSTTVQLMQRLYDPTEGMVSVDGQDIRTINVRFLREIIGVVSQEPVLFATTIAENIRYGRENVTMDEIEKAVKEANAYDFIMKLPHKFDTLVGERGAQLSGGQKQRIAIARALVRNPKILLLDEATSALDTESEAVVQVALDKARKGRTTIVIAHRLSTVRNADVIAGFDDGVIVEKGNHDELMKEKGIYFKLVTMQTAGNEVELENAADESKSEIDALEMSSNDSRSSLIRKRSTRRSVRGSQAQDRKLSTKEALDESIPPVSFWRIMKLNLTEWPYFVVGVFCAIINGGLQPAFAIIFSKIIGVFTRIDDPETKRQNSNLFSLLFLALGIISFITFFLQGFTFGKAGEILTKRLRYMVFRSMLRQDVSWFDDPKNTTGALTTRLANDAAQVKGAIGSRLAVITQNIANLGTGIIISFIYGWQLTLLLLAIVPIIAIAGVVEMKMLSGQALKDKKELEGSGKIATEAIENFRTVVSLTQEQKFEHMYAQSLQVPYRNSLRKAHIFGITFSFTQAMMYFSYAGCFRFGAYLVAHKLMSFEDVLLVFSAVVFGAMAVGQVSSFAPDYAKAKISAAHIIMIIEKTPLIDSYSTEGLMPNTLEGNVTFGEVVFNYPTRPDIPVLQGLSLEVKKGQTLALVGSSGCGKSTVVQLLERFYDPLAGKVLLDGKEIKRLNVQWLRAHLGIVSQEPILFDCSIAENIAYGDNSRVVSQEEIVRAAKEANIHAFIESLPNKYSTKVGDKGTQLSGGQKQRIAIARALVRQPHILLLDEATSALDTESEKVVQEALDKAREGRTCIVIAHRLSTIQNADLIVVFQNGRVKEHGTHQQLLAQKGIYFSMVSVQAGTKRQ
Test Readout: EC50 (µM)
Answer format: numeric, µM implied, no suffix.

### Prompt # query: EC50 of entry CCN(CC)CCCC(C)Nc1c2ccc(Cl)cc2nc2ccc(OC)cc12 (stereo unspecified)
### Response 14.4
